- PROTOCOL_TEXT: Oral bioavailability / pharmacokinetic study
- Design: species or system Male Wistar rats
- CONDITIONS: male, Wistar, rat, in vivo, iv, 10 mg/kg

# MOLECULE, AUC(0-inf)
rows = [
    ("CC1=C2C(=O)O[C@@H](c3ccoc3)[C@]2(C)CCC1", "11800 ng·h/mL"),
]

###

- PROTOCOL_TEXT: Phase solubility study of Frax with CDs
- Format: physicochemical
- CONDITIONS: 350 mM HP-β-CD aqueous solution, aqueous with cosolvent or surfactant or cyclodextrin, thermodynamic from solid; with 350 mM HP-β-CD, 37 °C

# MOLECULE, solubility at 72 h (µg/mL)
records = [
    ("CC1=C2C(=O)O[C@@H](c3ccoc3)[C@]2(C)CCC1 [Frax, Fraxinellone]", 6550),
]

###

- PROTOCOL_TEXT: Oral bioavailability / pharmacokinetic study
- Set-up: species or system Male Wistar rats
- CONDITIONS: male, Wistar, rat, in vivo, po, 150 mg/kg

# MOLECULE, UNIT_OF_MEASURE, Tmax
data = [
    ("CC1=C2C(=O)O[C@@H](c3ccoc3)[C@]2(C)CCC1", "h", 1),
]

###

- PROTOCOL_TEXT: Phase solubility study of Frax with CDs
- Assay type: physicochemical
- CONDITIONS: 8.82 mM β-CD aqueous solution, aqueous with cosolvent or surfactant or cyclodextrin, thermodynamic from solid; with 8.82 mM β-CD, 37 °C

# MOLECULE, UNIT_OF_MEASURE, solubility at 72 h
rows = [
    ("CC1=C2C(=O)O[C@@H](c3ccoc3)[C@]2(C)CCC1", "mg/mL", 0.31),
]

###

- PROTOCOL_TEXT: Oral bioavailability / pharmacokinetic study
- Design: species or system Male Wistar rats
- CONDITIONS: male, Wistar, rat, in vivo, po, 150 mg/kg

# MOLECULE, AUC(0-inf)
measured = [
    ("CC1=C2C(=O)O[C@@H](c3ccoc3)[C@]2(C)CCC1 [Frax, Fraxinellone]", "970 ng·h/mL"),
]

###

- PROTOCOL_TEXT: Octanol/water partition coefficient (Log P) measurement
- Assay type: physicochemical
- CONDITIONS: octanol/PBS (mutually saturated, equal volumes); pH 1.2, 4.5 and 6.8, 37 °C

# MOLECULE, logP at 24 h
rows = [
    ("CC1=C2C(=O)O[C@@H](c3ccoc3)[C@]2(C)CCC1 [Frax, Fraxinellone]", 3.2),
]

###

- PROTOCOL_TEXT: Phase solubility study of Frax with CDs
- Assay type: physicochemical
- CONDITIONS: 8.82 mM G2-β-CD aqueous solution, aqueous with cosolvent or surfactant or cyclodextrin, thermodynamic from solid; with 8.82 mM G2-β-CD, 37 °C

# MOLECULE, UNIT_OF_MEASURE, solubility at 72 h
records = [
    ("CC1=C2C(=O)O[C@@H](c3ccoc3)[C@]2(C)CCC1", "µg/mL", 430),
]

###

- PROTOCOL_TEXT: Oral bioavailability / pharmacokinetic study
- Set-up: species or system Male Wistar rats
- CONDITIONS: male, Wistar, rat, in vivo, po, 150 mg/kg

# MOLECULE, Cmax
records = [
    ("CC1=C2C(=O)O[C@@H](c3ccoc3)[C@]2(C)CCC1", "490 ng/mL"),
]
